Each entry below carries its recorded TGI.
- Tested on: SK-MEL-2 melanoma
- assay-overview: NCI tumour cell line growth inhibition, 48 h
Where a SMILES comes first, the peptide text is derived from it. [ ]: non-standard residue; d: D form. The star is where a group is joined. ξ: configuration not given here. ξF = NC(Cc1ccccc1)C(=O)O; Cbz = O=C(OCc1ccccc1)*; Aib = CC(C)(N)C(=O)O; NHNH2 = NN*

- molecule: "CCSCC1CC(O)(c2ccccc2)CC(c2ccc(F)cc2)O1 (centres undefined)"
  TGI: "3.53 µM"
- molecule: "N=C1OC(CN2CCN(c3ccccc3)CC2)CN1C(=S)Nc1ccccc1 (centres undefined)"
  TGI: "> 100 µM"
- molecule: "Cc1c(N2C(=O)/C(=C/c3ccc(Cl)cc3)N=C2c2ccccc2)c(=O)n(-c2ccccc2)n1C"
  TGI: "39.9 µM"
- molecule: "CCOC(=O)c1c[nH]c2c(Sc3ccccc3)nccc2c1=O"
  TGI: "> 100 µM"
- molecule: "COc1ccc(N=NC(=O)NC(Cc2ccccc2)C(=O)O)cc1 (centres undefined)"
  TGI: "> 100 µM"
- molecule: "COc1ccc(C/C(=N/O)C(=O)NCCc2cc(Br)c(OCCCN(C)C)c(Br)c2)cc1Br"
  TGI: "37.4 µM"
- molecule: "CC(=O)Nc1ccc(NCC(=O)Nn2cnc3ccc(S(=O)(=O)Nc4ccc(NC(C)=O)cc4)cc3c2=O)cc1"
  TGI: "> 100 µM"
- molecule: "O=C(Cc1ccc(/C=C/C(=O)c2ncc[nH]2)cc1)Nc1ccc(F)cc1"
  TGI: "19 µM"
- molecule: "c1ccc(-c2nnn3c2NC2=C(CCCC2)C3c2ccccc2)cc1 (centres undefined)"
  TGI: "36 µM"
- molecule: "O=c1oc2ccccc2nc1/C=C(\\O)c1ccc(Cl)cc1"
  TGI: "> 100 µM"
- molecule: "O=c1[nH]c(=O)n(COCc2ccccc2)c2ccsc12"
  TGI: "> 100 µM"
- molecule: "CC(C)(C)OC(=O)n1c2ccccc2c2c(=O)nc(N3CCCCC3)sc21"
  TGI: "> 100 µM"
- molecule: "COC(=O)C(C(=O)C(=O)Nc1c(C)cccc1C)c1cnc2ccccc2n1 (centres undefined)"
  TGI: "> 100 µM"
- molecule: "COC(=O)/C(C#N)=C(\\Nc1ccccc1)N1CCOCC1"
  TGI: "> 100 µM"
- molecule: "CC(C)(NC(=O)OCc1ccccc1)C(=O)NC(Cc1ccccc1)C(=O)NN (centres undefined) (Cbz-[Aib]-[ξF]-NHNH2)"
  TGI: "> 100 µM"
- molecule: "N#Cc1cccc2c1Nc1ccccc1S2"
  TGI: "> 100 µM"
- molecule: "O=C(O)c1ccc(C(=O)c2ccccc2C(=O)O)cc1C(=O)O"
  TGI: "> 100 µM"
- molecule: "CC(=O)C1=C(C)N2C(=NC3=C(CCc4ccccc43)C2c2ccc(F)cc2)S1 (centres undefined)"
  TGI: "> 100 µM"
- molecule: "CCN(CC)C(=O)Cc1c(C(=O)N(CC)CC)c(=O)nc2sccn12"
  TGI: "> 100 µM"
- molecule: "O=c1[nH]c2nnc(COc3ccc(Cl)cc3Cl)n2nc1Cc1ccccc1"
  TGI: "> 100 µM"
- molecule: "O=c1[nH]c2ccccc2c(=O)n1/N=C/c1ccc(O)cc1"
  TGI: "> 100 µM"
- molecule: "COC(=O)C(NC(=O)C(CC(=O)OC(C)(C)C)NC(=O)OC(C)(C)C)C(O)c1ccccc1 (centres undefined)"
  TGI: "> 100 µM"
- molecule: "O=C(O)CCCC(=O)Nn1c(Cc2ccc(Cl)cc2)n[nH]c1=O"
  TGI: "> 100 µM"
- molecule: "CN(CCN1C(=O)c2cc([N+](=O)[O-])cc3cc([N+](=O)[O-])cc(c23)C1=O)CCN1C(=O)c2cc([N+](=O)[O-])cc3cc([N+](=O)[O-])cc(c23)C1=O"
  TGI: "5.21 µM"
- molecule: "COC(=O)C(N)CCCC(N)C(=O)NC(C)C(=O)NC(CCC(=O)NCCNCCNc1c2ccccc2nc2cccc([N+](=O)[O-])c12)C(N)=O (centres undefined)"
  TGI: "30.6 µM"
- molecule: "Cc1ccc(S(=O)(=O)OCCn2cnc3nc(NC(=O)c4ccccc4)[nH]c(=O)c32)cc1"
  TGI: "> 100 µM"
- molecule: "O=S(=O)(NCCCNc1nccc(-c2c(-c3ccc(O)cc3)nc3sccn23)n1)c1ccc(F)cc1"
  TGI: "2.81 µM"
- molecule: "COc1cc(C2Cc3ncccc3-c3[nH]c(=O)c4cccnc4c32)cc(OC)c1OC (centres undefined)"
  TGI: "> 100 µM"
- molecule: "Cc1cc(NCCCCCCCCNc2cc(C)nc3cc(N)ccc23)c2ccc(N)cc2n1"
  TGI: "40.4 µM"

// data source = PubChem BioAssay (NCI)
